mortality at 500 µg/mL values by entry
System: C. elegans
measurementNotes: Toxic effects of compounds on C. elegans (lethality)
Format: in vivo
setupConditions: Caenorhabditis elegans, compound 0.5 mg/mL, 48 h, mean ± SD, read-out: Lethality rate (%)
Kindly answer with a numeric value in %, unit omitted.

Illustrative cases are given below, each with its answer.
Input line: Please provide the recorded mortality at 500 µg/mL for C=C1CCC[C@]2(C)CC[C@@H](C(=C)C(=O)O)CC12 (some centres unmarked) , tested on C. elegans.
Output line: 72.9

Input line: # iterate: C=C(C(=O)O)C1CCC2=CC(O)CC(C)C2(C)C1 (centres unmarked)
Output line: 38.8

Input line: # iterate: C=C(C(=O)O)[C@@H]1CC[C@@]2(C)CCC(=O)C(C)=C2C1
Output line: 34.6

Input line: # iterate: C=C(C(=O)O)[C@@H]1CC[C@@]2(C)CCCC(=C)[C@]2(O)C1 [Compound 7, 5α-hydroxycostic acid]
Output line: 50.8

Input line: # iterate: C=C(C(=O)O)[C@@H]1CC[C@@]2(C)CCCC(C)=C2C1
Output line: 30.8

Input line: # iterate: C=C(C(=O)O)[C@@H]1CC[C@@]2(C)CCC[C@H](C)[C@]2(O)C1 [Compound 6, 5α-hydroxy-4α,15-dihydrocostic acid]
Output line: 48.8

Input line: # iterate: C=C(C(=O)O)[C@H]1C=C2[C@@H](C)CCC[C@]2(C)CC1
Output line: 60.8

Field: next molecule
Input line: Please provide the recorded mortality at 500 µg/mL for C=C(C(=O)OCC)[C@@H]1CC[C@@]2(C)CCCC(=C)[C@]2(O)C1 , tested on C. elegans.
Output line: 31.7
